All values here come from paper PMC5859096.

Biological target: His6-SeMet BldC(L43M-L58M) (Streptomyces coelicolor)
Assay: fluorescence polarization
Settings: FP: 25 mM Tris pH 7.5, 150 mM NaCl, 1 nM F-DNA, 25 C; footprinting: 10 mM Tris HCl pH 7.8, 150 mM NaCl, 2 mM DTT, 1 ug poly(dI-dC), 10% glycerol (none for …)
Observed property: Kd (µM)
Kindly answer with a numeric value in µM, unit omitted.

Task item: For the sequence TTCAATTCGGACAATTCGGACA / AATGTCCGAATTGTCCGAATTG [whiI opt 22mer (FP)] , what Kd is on record?
Reply: 0.0196
